# experimentalSystem: T1, human EGFRvIII-hFc protein (human, UniProt P00533 25-645)
# T1 construct: extracellular domain; made in HEK293 cells, purified on protein A; also called immunogen A; hFc-tagged EGFRvIII protein; not shown: human IgG Fc fragment (hFc) of the pCpC vector
# assayOverview: ELISA, coated EGFRvIII-hFc, antibody 100 nM

binder: Murine anti-75G7 (antibody, V domains shown, murine hybridoma antibody; also called 75G7C6) VH: EVQLQQSGPELVKPGASVKIPCKASGYTFTDYNMDWVKQSHGKSLEWIGDINPNNGDTIYNQKFKGKATLTVDKSSSTAYMELRSLTSEDTAVYYCARGDYDGYYPVYYAMDYWGQGTSVTVSS VL: ENVLTQSPAIMSASPGEKVTMTCRASSSVSSSYLHWYQQKSGASPKLWIFSTSNLAAGVPARFSGSGSGTSYSLTVSSVEAEDAATYYCQQYSGYPLTFGAGTKLELK
OD450 nm: 0.56
--
binder: Murine anti-64F1 (antibody, V domains shown, murine hybridoma antibody; also called 64F1F8) VH: QVQLQQSGAELARPGASVKMSCKASGYTFSSYTMHWAKQRPGQGLEWIGYINPSSGYTKYNQKFKDKATLTADKSSSTAYMQLSSLTSEDSIVYYCARGGGRGFAYWGQGTLVTVSA VL: QIVLTQSPAIMSASPGERVTMTCSASSSVSYMYWYQQKPGSSPRLLIYDTSNLASGVPVRFSGSGSGTSYSLTISRVEAEDAATYYCQQWSSYSLTFGAGTKLELK
OD450 nm: 3.73
--
binder: Murine anti-63A10 (antibody, V domains shown, murine hybridoma antibody; also called 63A10A7) VH: QVQLQQSGAELARPGASVKMSCKASGYTFISFTMHWVKQRPGQGLEWIGYINPNSGYTKYNQKFKDKATLTAGQSSSTAYMQLSSLTSEDSAVYYCTRGGGRGFAYWGQGTLVTVSA VL: DILMTQSPSSMSVSLGDTVTITCHASQDINSNIGWLQQKPGKSFKALIYHGTNLEDGVPSRFSGSGSGADYSLTISSLESEDFADYYCVQYAQFPFTFGSGTKLEIK
OD450 nm: 3.71

Where do these numbers come from? They come from patent US20210032351A1.
